- Method Description: log P
- Assay type: physicochemical
- Experimental Setup: octanol/water
Assay Metric: logP
Give bare numbers.

Some solved cases for reference:
>>> quantitative_result("CC(C)=CC(CC(C)(C)c1ccc(C(F)(F)F)cc1)N1CCC(C2CCOCC2)CC1 (stereo not drawn)")
6.58
>>> quantitative_result("CC(C)(CCN1CCC(O)CC1)c1ccc(C(F)(F)F)cc1")
3.43

Now for a further compound.
## Task What value of measured logP is listed for CC(C)=C[C@@H](CC(C)(C)c1ccc(C(F)(F)F)cc1)N1CCC(C2CCOCC2)CC1 ?
## Result 6.58

* * *

Exercise: for every item that follows, state its recorded logP.
- Method Description: log P
- Type: physicochemical
- Experimental Setup: octanol/water
Answers are plain numbers.

Worked examples follow.
>>> quantitative_result("CC(C)(CCN1CCC(CO)CC1)c1ccc(C(F)(F)F)cc1")
3.89
>>> quantitative_result("COC[C@@H]1CCCN1CCC(C)(C)c1ccc(C(F)(F)F)cc1")
4.53
>>> quantitative_result("COC1CCN(CCC(C)(C)c2ccc(C(F)(F)F)cc2)CC1")
4.07
>>> quantitative_result("CC1(O)CCN(CCC(C)(C)c2ccc(C(F)(F)F)cc2)CC1")
3.71

Consider now this further compound.
## Task Reported logP, compound CC(C)(CCN1CCC(O)(c2ccccc2)CC1)c1ccc(C(F)(F)F)cc1 : ____
## Result 5.08

* * *

- Tested Target: Sigma-1 receptors on Jurkat cell membranes (Homo sapiens (Human))
- Sequence (Q99720 whole entry): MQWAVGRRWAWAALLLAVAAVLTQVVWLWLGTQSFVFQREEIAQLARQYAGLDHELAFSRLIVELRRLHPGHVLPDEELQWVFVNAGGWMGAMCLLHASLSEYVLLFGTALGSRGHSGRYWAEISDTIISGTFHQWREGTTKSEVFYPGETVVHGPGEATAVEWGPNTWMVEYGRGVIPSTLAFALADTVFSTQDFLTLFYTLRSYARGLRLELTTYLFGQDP
pKi: −log10 of the molar value.
Each entry gets F if its pKi stays under 7, and T if its pKi is 7 or above.

>>> qualitative_label("CC(C)=CC(CC(C)(C)c1ccc(C(F)(F)F)cc1)N1CCC(CCO)CC1 (stereo not shown)")
"T"
>>> qualitative_label("CC(C)=CC(CC(C)(C)c1ccc(Cl)cc1)N1CCC(C)(O)CC1 (stereo not shown)")
"T"
>>> qualitative_label("CC(C)=CC(CC(C)(C)c1ccc(C(F)(F)F)cc1)N1CCC(OC(C)C)CC1 (stereo not shown)")
"F"
>>> qualitative_label("CC(C)=CC(CC(C)(C)c1ccc(F)cc1)N1CCN(C(=O)OC(C)(C)C)CC1 (stereo not shown)")
"F"
>>> qualitative_label("CC(C)=CC(COc1ccccc1)N1CCC(O)CC1 (stereo not shown)")
"F"

## Task Given CC(C)=CC(CC(C)(C)c1ccc(Cl)cc1)N1CCC(C)(C)CC1 (stereo not shown) , state whether its pKi is at least 7.
## Result T

## Task State whether the measured pKi reaches 7, counting equality as reaching it, for CC(C)=CC(COc1ccc(F)cc1)N1CCC(O)CC1 (stereo not shown)
## Result T

## Task I'd appreciate it if you could say whether CC(C)=CC(CC(C)(C)c1ccc(C(F)(F)F)cc1)N1CCOCC1 (stereo not shown) has pKi at least equal to 7.
## Result F

## Task Could you please find out whether CC(C)=CC(CC(C)(C)c1ccc(S(C)(=O)=O)cc1)N1CCC2(CCOCC2)CC1 (stereo not shown) has pKi that meets 7 or exceeds it?
## Result F

## Task Dear colleague, could you confirm whether CC(C)=CC(CC(C)(C)c1ccc(C(F)(F)F)cc1)N1CCC2(CC1)OCc1ccccc12 (stereo not shown) has pKi at or above 7?
## Result T

* * *

- Method Description: log P
- Type: physicochemical
log P strictly under 5 means rule met; at 5 or over means rule not met.

A selection of reference data follows.
>>> qualitative_label("CC(C)(CC(c1ccccc1)N1CCCCC1)c1ccc(Cl)cc1 (centres unmarked) [Compound 117]")
"rule not met"
>>> qualitative_label("COCC1CCCN1C(C)CC(C)(C)c1ccc(Cl)cc1 (centres unmarked) [Compound 238]")
"rule met"
>>> qualitative_label("CC(C)=CC(CC(C)(C)c1ccc(N2CCOCC2)cc1)N1CCC2(CCOCC2)CC1 (centres unmarked) [Compound 147]")
"rule not met"
>>> qualitative_label("COc1cc(CCC(C)(C)N2Cc3cccc(C(=O)N4CCN(C(=O)[C@@H]5CCCN5C(C)=O)CC4)c3C2)ccc1O [Compound 282]")
"rule met"
>>> qualitative_label("CC(C)(CCN1CCC(C2CCOCC2)CC1)c1ccc(C(F)(F)F)cc1 [Compound 1]")
"rule not met"

## Task Quick check: log P of COc1cc(CCC(C)(C)N2Cc3cccc(C(=O)N4CCN(C(=O)[C@H](C)O)CC4)c3C2)ccc1O [Compound 281] under 5?
## Result rule met

## Task I wonder whether CCOC(=O)N1CCN(C(C=C(C)C)CC(C)(C)c2ccc(F)cc2)CC1 (centres unmarked) [Compound 196] has log P below 5. Can you tell?
## Result rule met

## Task In the record for COC(=O)[C@H]1CCCN1CCC(C)(C)c1ccc(Cl)cc1 [Compound 290] , is log P less than 5?
## Result rule met

## Task # TODO verify log P < 5 strictly for this molecule: COC[C@@H]1CCCN1C(C=C(C)C)CC(C)(C)c1ccc(C(F)(F)F)cc1 (some centres unmarked) [Compound 275]
## Result rule not met

## Task Identify whether the molecule CCCCC1(OC(=O)NC(C)C)CCN(C(C=C(C)C)CC(C)(C)c2ccc(F)cc2)CC1 (centres unmarked) [Compound 226] records log P below 5.
## Result rule not met

## Task Item COCCC1(O)CCN(C(C=C(C)C)CC(C)(C)c2ccc(C(F)(F)F)cc2)CC1 (centres unmarked) [Compound 210] : log P beneath 5, strictly?
## Result rule met

* * *

- Method Description: log P
- Assay type: physicochemical
Under this convention, YES denotes log P strictly below 5 and NO denotes log P at or above 5.

Look over these answered cases.
>>> qualitative_label("CC(C)=CC(COc1ccccc1)N1CCC(O)CC1 (stereo not drawn) [Compound 184]")
"YES"
>>> qualitative_label("COC(=O)N1CCN(C(=O)c2cccc3c2CN(C(C)(C)CCc2ccc(O)c(OC)c2)C3)CC1 [Compound 272]")
"YES"
>>> qualitative_label("CC(C)=CC(CC(C)(C)c1ccc(F)cc1)N1CCN(S(C)(=O)=O)CC1 (stereo not drawn) [Compound 154]")
"YES"
>>> qualitative_label("CC(C)=CC(CC(C)(C)c1ccc(S(C)(=O)=O)cc1)N1CCC(C(C)C)CC1 (stereo not drawn) [Compound 89]")
"NO"
>>> qualitative_label("CCCCC1(O)CCN(C(C=C(C)C)CC(C)(C)c2ccc(C(F)(F)F)cc2)CC1 (stereo not drawn) [Compound 212]")
"NO"
>>> qualitative_label("CC(C)=CC(CCc1ccc(C)cc1)N1CCC(C2CCOCC2)CC1 (stereo not drawn) [Compound 114]")
"NO"
>>> qualitative_label("CC(C)=CC(CC(C)(C)c1ccc(C)cc1)NCc1ccc(C)cc1 (stereo not drawn) [Compound 54]")
"NO"

Here's the next entry for you.
## Task Lab note: confirm whether the reported log P for this compound is below 5, equality not counting. compound: CC(C)=CC(CC(C)(C)c1ccc(C(F)(F)F)cc1)N1CCC[C@H]1CO (stereo partly drawn) [Compound 236]
## Result NO

* * *

- Method Description: log P
- Assay type: physicochemical
In plain terms, low log P, meaning strictly below 6, gives met, and everything else gives not met.

>>> qualitative_label("CC(C)=CC(CCc1ccc(F)cc1)N1CCC(C2CCOCC2)CC1 (stereo not shown) [Compound 21]")
"met"
>>> qualitative_label("CC(C)=CC(CC(C)(C)c1ccc(Cl)cc1)N1CC[C@H](O)C1 (stereo partly shown)")
"met"

## Task Is it true that log P reported for CC(C)=CC(CC(C)(C)c1ccc(C(F)(F)F)cc1)N1CCNC(=O)C1 (stereo not shown) is less than 6?
## Result met

## Task In the record for CC(C)=CC(CC(C)(C)c1ccccc1)N1CCNC(=O)C1 (stereo not shown) , is log P less than 6?
## Result met

## Task Regarding COc1ccc(C(C)(C)CC(c2ccccc2)N2CCCCC2)cc1 (stereo not shown) , kindly confirm whether its log P is beneath 6.
## Result met

## Task Field: below-cutoff. Rule: recorded log P strictly less than 6. Subject: CC(C)=C[C@@H](CC(C)(C)c1ccc(Cl)cc1)N1CCC[C@@H]1CO
## Result met

## Task Threshold test, log P < 6: CCOC1CCN(C(C=C(C)C)CC(C)(C)c2ccc(Cl)cc2)CC1 (stereo not shown)
## Result met

## Task Identify whether the compound CC(C)=CC(CC(C)(C)c1ccc(F)cc1)N1CCCCC1 (stereo not shown) records log P below 6.
## Result met

## Task Decide: log P of CC(C)(CCN1CCC(C2CCOCC2)CC1)c1ccc(Cl)cc1 strictly below 6?
## Result met

* * *

- Tested Target: Sigma-1 receptors on Jurkat cell membranes (Homo sapiens (Human))
Just a reminder that ties go to 0 (no): only Ki strictly below 20 nM counts as 1 (yes).

>>> qualitative_label("COC1CCN(C(C)CC(C)(C)c2ccc(C(F)(F)F)cc2)CC1 (centres unmarked)")
"1 (yes)"
>>> qualitative_label("COC1CCN(C(C=C(C)C)CC(C)(C)c2ccc(C(F)(F)F)cc2)CC1 (centres unmarked)")
"0 (no)"
>>> qualitative_label("CC(C)=CC(CC(C)(C)c1ccc(F)cc1)N1CCC(CCO)CC1 (centres unmarked)")
"0 (no)"
>>> qualitative_label("CC(C)=CC(COc1ccc(Cl)cc1)N1CCC(O)CC1 (centres unmarked)")
"0 (no)"

Now look at this entry.
## Task Here's an entry: CC(CC(C)(C)c1ccc(C(F)(F)F)cc1)N1CCC(O)CC1 (centres unmarked) . Is its Ki below 20 nM?
## Result 1 (yes)
